Experiment: in vitro
Assay type: cell-based, human
Conditions: human, pc-14 cells, 1.0 μg/ml; read-out: Suppression
Metric Name: cytotoxicity at 72 h (%)
Give your result in % as a bare value.

Annotate the compound CCCCCCC(O)CCCCCCCCCC(O)C(O)C(N)(CO)C(=O)O (stereo not drawn) [Example 9] with its measured cytotoxicity at 72 h. 7

Name the recorded cytotoxicity at 72 h of the item CCCCCCC(=O)CCCCCCCCCC(O)C(O)C(N)(CO)C(=O)O (stereo not drawn) [Example 5] in your answer. 16.5

Give a short answer stating reported cytotoxicity at 72 h for CCCCCCC(O)CCCCCC/C=C/CC1OC(=O)C(N)(CO)C1O (stereo not drawn) [Example 8] . 10.3

Using known records, supply cytotoxicity at 72 h for CCCCCCC(=O)CCCCCCCCCC1OC(=O)C(N)(CO)C1O (stereo not drawn) [Example 7] 10.5

For the compound CCCCCCC(O)CCCCCCCCCC1OC(=O)C(N)(CO)C1O (stereo not drawn) [Example 10] , give its reported cytotoxicity at 72 h. 13.3

Please indicate cytotoxicity at 72 h recorded for CCCCCCC(=O)CCCCCC/C=C/CC(O)C(O)C(N)(CO)C(=O)O (stereo not drawn) [Example 1] 7

Look up and state reported cytotoxicity at 72 h for CCCCCCC(O)CCCCCC/C=C/CC(O)C(O)C(N)(CO)C(=O)O (stereo not drawn) [Example 6] 14.6

Return the recorded cytotoxicity at 72 h value; entry: CCCCCCC(=O)CCCCCC/C=C/CC1OC(=O)C(N)(CO)C1O (stereo not drawn) [Example 4] 0

Using known records, supply cytotoxicity at 72 h for CCCCCCC(=O)CCCCCC/C=C/CC1OC(=O)C(CO)(NC(C)=O)C1O (stereo not drawn) [Example 11] 12.7

// provenance: patent US5219884A
